Data credit: PubChem BioAssay (NCI)

TGI values, listed per item
Tested on: OVCAR-5 ovarian
Assay: NCI tumour cell line growth inhibition, 48 h

Cn1cc(C2NC(=O)c3ccccc3N2)c2ccccc21 (stereo unspecified) :: > 100 µM
COC(=O)c1c(O)c(C#N)c2[nH]c3ccccc3n2c1=O :: > 100 µM
Cc1ccc(N)c(S)c1 :: 42 µM
Cc1ccc(S(=O)c2ccccc2[N+](=O)[O-])cc1 (stereo unspecified) :: > 100 µM
O=C1C2C3C4C1C1C2[C@H](OCc2ccccc2)C3C1[C@H]4OCc1ccccc1 (stereo partly specified) :: 56 µM
C=CCc1cccc(C=O)c1O :: > 100 µM
OCC(O)COCn1cc(Cn2ncc3c(SCc4ccccc4)ncnc32)nn1 (stereo unspecified) :: > 100 µM
CC(C)=CCc1cc2c(cc1O)C1=C(C(=O)C3=C(NCCS3(=O)=O)C1=O)C(C=C(C)C)O2 (stereo unspecified) :: > 16.7 µM

Exam item: So what's the measured TGI for this one? CC(C)OC(=O)NCCn1cc(-c2ccccc2)nn1
Marked response: > 100 µM

Exam item: So what's the measured TGI for this one? NC(N)=N/N=C/c1c(-c2ccccc2[N+](=O)[O-])nc2sccn12
Marked response: > 100 µM

Exam item: So what's the measured TGI for this one? C=CCN1C(=O)CC2[C@@H]3CCc4cc(O)ccc4C3CC[C@]2(C)C1=O (stereo partly specified)
Marked response: > 10 µM
